Recorded values, source patent US20250027068.

tested-system: pooled human IgG (human IgG1,2,3 and 4)
quantity-measured: Enzyme Activity Endpoint Assay: Fc (ng/µL)
The response must be a number in ng/µL with no trailing unit.

PRT-291 (protein) MVTSVWTKGVTPPADFTQGEDVFHAPYVANQGWYDITKTFNGKDDLLCGAATAGNMLHWWFDQNKEYIEAYLKKHPEKQKIMFGDQELLDVRKAINTKGSQKNSELFNYFRDKAFPNLSARRLGVMPDLVLDMFINGYYLNVTKTQTTDVNRTYQEKDKRGGIFDAVFTRGDQSKLLTSRHDFKEKGLKEISDLIKQELTEGKALGLSHTYANVRLNHVINLWGADFDSDGNLKAIYVTDSDSNASIGMKKYFVGVNSSGKVAISAKEIKEDNIGAQVLGLFTLSTGQDIWNQTN ... 420
PRT-188 (protein) MANQEIRYSEVTPYHVTSVWTKGVTPPANFRKIVDGNIAYYAAPYVANQGWYDITKTFNGKDDLLCGAATAGNMLHWWFDQNKDQIKRYLEEHPEKQKINFNGEQMFDVKELNTYESDHGYRDKSKLFEYFKEKAFPYLSTKHLGVFPDHVIDMFINGYRLSLTNHGPTPVKEGSKDPRGGIFDAVFTRGDQSKLLTSRHDFKEKNLKEISDLIKKELTEGKALGLSHTYANVRINHVINLWGADFDSNGNLKAIYVTDSDDKKLTIGDERIGMKKYFVGVNSAGKVAISAKEIKEDNIGAQVLGLFTLSTGQDSWNQTN ... 40

Input line: Tell me the measured Enzyme Activity Endpoint Assay: Fc of PRT-293 (protein) MVTSVWTKGVTPPADFTQGEDVFHAPYVANQGWYDITKTFNGKDDLLCGAATAGNMLHWWFDQNKEYIEAYLKKHPEKQKIMFGDQELLDVRKAINTKGSQKNSELFNYFRDKAFPNLSARRLGVMPDLVLDMFINGYYLNVTKTQTTDVNRTYQEKDKRGGIFDAVFTRGDQSKLLTSRHDFKEKGLKEISDLIKQELTEGKALGLSHTYANVRLNHVINLWGADFDSDGNLKAIYVTDSDSNASIGMKKYGVGVNSAGKVAISAKEIKEDNIGAQVLGLFTLSTGQDIWNQTN , please.
Output line: 0

Input line: Thanks! And PRT-670 (protein) MQITSVWTKGVTPLTPEQFRNNNEDVFHAPYLPNQGWYDITKAFNGKDNLLCGAATAGNMLHWWFDQNKEEIEAYLKKYPEKQKIIFNNQELFDLRKAINTKDSQTNSALFNYFRDKAFPNLSARQLGVMPDHVLDMFINGYYLNVGKTQSTDVNRPYQDKDKRGGIFDHVFNRGDQTKLLTARHDLKNKTLNDISTLIKQELSSGKALALSHTYANVGISHVINLWGADFNAEGNLEAIYVTDSDDRASIGMKKYYVGRNASGHVAISAKKIEGENLGAQVLGLFTLSSGKEIWQKLSLEHHHHHH ?
Output line: 174

Input line: What do we get for PRT-292 (protein) MVTSVWTKGVTPPADFTQGEDVFHAPYDANQGWYDITKTFNGKDDLLCGAATAGNMLHWWFDQNKEYIEAYLKKHPEKQKIMFGDQELLDVRKAINTKGSQKNSELFNYFRDKAFPNLSARRLGVMPDLVLDMFINGYYLNVTKTQTTDVNRTYQEKDKRGGIFDAVFTRGDQSKLLTSRHDFKEKGLKEISDLIKQELTEGKALGLSHTYANVRISHVINLWGADFDSDGNLKAIYVTDSDSNASIGMKKYFVGVNSAGKVAISAKEIKEDNIGAQVLGLFTLSTGQDIWNQTN ?
Output line: 359

Input line: And the next one, PRT-183 (protein) MRNATEAYAKEVPHQVTSVWTKGVTPPANFTQGEDVFHAPYVANQGWYDITKTFNGKDDLLCGAATAGNMLHWWFDQNKDQIKRYLEEHPEKQKINFNGEQMFDVKEAIDTKNHQLDSKLFEYFKEKAFPYLSTKHLGVFPDHVIDMFINGYRLSLTNHGPTPVKEGSKDPRGGIFDAVFTRGDQSKLLTSRHDFKEKNLKEISDLIKKELTEGKALGLSHTYANVRINHVINLWGADFDSNGNLKAIYVTDSDSNASIGMKKYFVGVNSAGKVAISAKEIKEDNIGAQVLGLFTLSTGQDSWNQTN ?
Output line: 175

Input line: Also need PRT-677 (protein) MQITSVWTKGVIPPTMDQFRYNNYDVFHAPYLPHQGWYDITKTFDGGDNLLCGAATAGNMLHWWFDQNKEYIENYLKKYPEKQKIIFNNQELFDLRKAINTKDSQTNSELFNYFRDKAFGNLSARQKGVMPDLVLDMFINGYYLNLFKTQSTDVNRPNDTRDKRGGFFDHVFGRGDQTKLLTARHDLYNGGLSDISQLIKQELQSGKALAISHTYGNVSSSHVINLWGADFDAEGNLEAIYVTDSDDRSSIGMKKYYVGINASGKVAISAKKIEGENVGAQVLGLFTLSSGKEIWKKLSLEHHHHHH , thanks.
Output line: 0

Input line: // same read-out, input: PRT-513 (protein) MITSVWTKGVTPPAKFTQGEDVFHAPYVANQGWYDITKTFNGKDDLLCGAATAGNMLHWWFDQNKEEIEAYLKKHPEKQKIMFGDQELLDVRKVINTKDSQTNSALFNYFKDKAFPNLSARRLGVMPDLVLDMFINGYYLNVYKTQTTDVNRTYQTKDRRGGIFDAVFTRGDQSKLLTERHDLKNKTLKEISDLIKQELTEGKALGLSHTYANVRINHVINLWGADFDSNGNLEAIYVTDSDSNASIGMKKYFVGVNSAGKVAISAKEIKEDNIGAQVLGLFTLSTGQDIWNQTNLEHHHHHH
Output line: 367
